Items are presented alongside their recorded normalized growth.
# run_description: chemical genetic growth profiling, strain panel (AID 1159580);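 also: tested at 20 µM; growth read once vehicle control cultures reached saturation at 30 °C; 1 = growth at the plate median or of vehicle wells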
# condition_description: S. cerevisiae deletion strains, growth OD, locus YLR113W, strain HOG1, stronger effect = lower value
Among all 5,500 compounds or so, about 2,000 (36%) were called active. Another 18% or so got no clear call; they are omitted. The list shows a part of the results.
value_kind: normalized growth

compound	endpoint_value
CC(=O)OCC(COC(C)=O)OC(C)=O	1
O=c1cc(-c2ccccc2O)oc2cc(O)ccc12	1
C[N+]1(C)C2CC(OC(=O)[C@@H](CO)c3ccccc3)CC1C1OC12 (stereo partly drawn)	1

---

Items are presented alongside their recorded normalized growth.
# run_description: chemical genetic growth profiling, strain panel (AID 1159580)
# condition_description: S. cerevisiae deletion strains, growth OD, locus YGL086W, strain mad1, stronger effect = lower value
The whole screen tested about 5,500 compounds, of which about 2,000 (36%) were called active. Another 18% or so got no clear call; they are omitted. The list shows a part of the results.

compound	normalized growth
NC(N)=NS(=O)(=O)c1ccc(N)cc1	1.01
C=CCSCC1Nc2cc(Cl)c(S(N)(=O)=O)cc2S(=O)(=O)N1 (stereo not given)	1.01
CCCCOC(=O)c1ccccc1C(=O)OCCCC	0.98
O=C1CC2OCC=C3CN4CC[C@]56c7ccccc7N1C5[C@H]2[C@H]3CC46 (stereo not given in full)	0.998
NS(=O)(=O)c1cc2c(cc1Cl)NC(C(Cl)Cl)NS2(=O)=O (stereo not given)	1.01

---

# run_description: chemical genetic growth profiling, strain panel (AID 1159580);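 also: tested at 20 µM; growth read once vehicle control cultures reached saturation at 30 °C; 1 = growth at the plate median or of vehicle wells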
# condition_description: S. cerevisiae deletion strains, growth OD, locus YNL307C, strain MCK1
About 2,000 (36%) of roughly 5,500 compounds were called active. Not shown: some 18% with an inconclusive outcome. No stated cut-off is given here; in the data, active means normalized growth mostly below about 0.91 (no sharp cut-off); inconclusive means no clear call, values can overlap the other calls; inactive means mostly above about 0.92. The list shows a part of the results.
Classes used: active, inactive

compound	assigned_class
CC[N+](CC)(CC)CCOc1cccc(OCC[N+](CC)(CC)CC)c1OCC[N+](CC)(CC)CC	inactive
CC1(C)C2(Cl)C(Cl)C(Cl)C(Cl)(C(Cl)Cl)C1(Cl)C2Cl (stereo unspecified)	active
NS(=O)(=O)c1cc2c(cc1Cl)NC(C(Cl)Cl)NS2(=O)=O (stereo unspecified)	inactive
CC(C)NCC(O)c1cc(O)cc(O)c1 (stereo unspecified)	inactive
C=C1C(=O)O[C@@H]2C[C@@]3(C)CCC[C@H](C)C3=C[C@H]12	active
Oc1ccc(Cl)cc1Cc1cc(Cl)ccc1O	active
COC(=O)C(O)c1ccccc1 (stereo unspecified)	inactive
O=C1CC2OCC=C3CN4CC[C@]56c7ccccc7N1C5[C@H]2[C@H]3CC46 (stereo partly specified)	inactive
CC(=O)Oc1c(C)cccc1C(=O)O	inactive
COc1cc(-c2coc3cc(OCc4ccccc4)c(OC)c(O)c3c2=O)cc(OCc2ccccc2)c1OC	inactive
Cc1c(Cl)cccc1Nc1ccccc1C(=O)O	active
COC(=O)C(C)c1ccc(C(=O)c2cccs2)cc1 (stereo unspecified)	active
COc1cc2c(cc1OC)C1Cc3ccc(OC)c(OC)c3CN1CC2 (stereo unspecified)	inactive
CCCNC1CCc2nc(N)sc2C1 (stereo unspecified)	inactive
COc1cc2occ(-c3ccccc3)c(=O)c2c(OC)c1C	active
C=C1CCC2C(CC2(C)C)C(=O)CCC1O (stereo unspecified)	inactive
CC(C)(C)CC(C)(C)c1ccc(O)c(Cc2ccc(Cl)cc2Cl)c1	inactive
CCCCN1CCCCC1C(=O)Nc1c(C)cccc1C (stereo unspecified)	inactive
CC1(C)C2CC(=O)[C@]3(C)C(CC[C@@]4(C)[C@H](c5ccoc5)OC(=O)[C@H]5O[C@]543)[C@@]2(C)C=C[C@@H]1O (stereo partly specified)	inactive
Cc1ccc(Cl)c(Nc2ccccc2C(=O)O)c1Cl	active
CO/N=C(\C(=O)NC1C(=O)N2C(C(=O)O)=C(COC(N)=O)CSC12)c1ccco1 (stereo unspecified)	active
OCc1ccccc1O	inactive
CO/N=C(\C(=O)N[C@@H]1C(=O)N2C(C(=O)O)=C(CSc3nc(=O)c(O)nn3C)CS[C@H]12)c1csc(N)n1	inactive
C=C1CCC2C(CC2(C)C)C(=C)CC/C1=N\O (stereo unspecified)	active
C=C1CCC(=O)C(C)CCC2C1CC2(C)C (stereo unspecified)	inactive
CC(C(=O)O)c1ccc(C(=O)c2cccs2)cc1 (stereo unspecified)	inactive
C=CCSCC1Nc2cc(Cl)c(S(N)(=O)=O)cc2S(=O)(=O)N1 (stereo unspecified)	inactive
COc1ccc2c(c1)CCC(c1ccccc1)=C2c1ccc(OCCN2CCCC2)cc1	active
C#CCCCCCCCCCCCC(O)CC(O)COC(C)=O (stereo unspecified)	active
Cc1cccc(C)c1NC1=NCCCS1	inactive
O=C1OC(c2ccc(O)cc2)(c2ccc(O)cc2)c2ccccc21	inactive
NC(CO)C(=O)NNCc1ccc(O)c(O)c1O (stereo unspecified)	inactive
CC[C@H](C)C(=O)O[C@H]1C[C@@H](C)C=C2C=C[C@H](C)[C@H](CC[C@@H]3C[C@@H](O)CC(=O)O3)[C@H]21	inactive
NC(=O)c1cccc(N)c1	inactive
NC(N)=NS(=O)(=O)c1ccc(N)cc1	inactive
C#CCCCCCCCCCCCC(=O)CC(O)COC(C)=O (stereo unspecified)	active

---

# run_description: chemical genetic growth profiling, strain panel (AID 1159580);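 also: tested at 20 µM; growth read once vehicle control cultures reached saturation at 30 °C; 1 = growth at the plate median or of vehicle wells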
# condition_description: S. cerevisiae deletion strains, growth OD, locus YKR026C, strain gcn3, stronger effect = lower value
Counter-ions that a name gives are not always drawn. About 2,000 (36%) of roughly 5,500 compounds were called active. About 18% were inconclusive and are not listed. This is one part of the list. Where a SMILES comes first, the peptide text is derived from it. The star is where a group is joined. Tfa = O=C(C(F)(F)F)*
Items are presented alongside their recorded normalized growth.
value_kind: normalized growth

compound	endpoint_value
O=C(O)CN1C(=O)c2cccc3cccc(c23)C1=O	0.996
CC(C)[C@@H]1CC[C@@H](C)C[C@H]1O	0.987
NC(CO)C(=O)NNCc1ccc(O)c(O)c1O (centres undefined)	0.991
C=C1CCC2C(CC2(C)C)C(=C)CC/C1=N\O (centres undefined)	0.998
C=C1CCC2C(CC2(C)C)C(=O)CCC1O (centres undefined)	1
CC(C)C(C)/C=C/C(C)[C@H]1CCC2C3=CCC4CC(=O)CC[C@]4(C)C3CC[C@@]21C (some centres undefined)	0.971
O=c1[nH]oc2c1CCNC2	1
C=CCSCC1Nc2cc(Cl)c(S(N)(=O)=O)cc2S(=O)(=O)N1 (centres undefined)	1
C=C1C(=O)O[C@@H]2C3O[C@]3(C)CC/C=C(\C)CC[C@@H]12 (some centres undefined)	0.991
O=c1cc[nH]c(=S)[nH]1	1.01
N[C@@H](CC(=O)N1CCn2c(nnc2C(F)(F)F)C1)Cc1cc(F)c(F)cc1F	0.972
Nc1ccn(C2O[C@H](CO)[C@@H](O)[C@@H]2O)c(=O)n1 (some centres undefined)	0.999
CC1OC1P(=O)(O)O (centres undefined)	1
CC(C)C(NC(=O)C(Cc1ccc(O)cc1)NC(=O)C(NC(=O)C(F)(F)F)C(C)C)C(=O)O (stereo not drawn) (Tfa-Val-Tyr-Val-OH; configuration not given here)	0.989

---

# run_description: chemical genetic growth profiling, strain panel (AID 1159580);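 also: tested at 20 µM; growth read once vehicle control cultures reached saturation at 30 °C; 1 = growth at the plate median or of vehicle wells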
# condition_description: S. cerevisiae deletion strains, growth OD, locus YGR252W, strain gcn5, stronger effect = lower value
The whole screen tested about 5,500 compounds, of which about 2,000 (36%) were called active. Roughly 18% stayed inconclusive and do not appear here. This is one part of the list.
Binarize normalized growth at 1; below is True, at or above is False.

molecule	assigned_class
C=C1C(=O)O[C@@H]2C3O[C@]3(C)CC/C=C(\C)CC[C@@H]12 (some centres not stated)	True
COc1cc(-c2coc3cc(OCc4ccccc4)c(OC)c(O)c3c2=O)cc(O)c1OC	True
CC(=O)OCC[C@H](C)CCC=C(C)C	False
COc1ccc2c(c1OC)C(=O)OC2[C@H]1c2c(cc3c(c2OC)OCO3)CCN1C (some centres not stated)	False
Clc1cccc(Cl)c1NC1=NCCN1	False
CC(C)C(=O)Nc1ccc([N+](=O)[O-])c(C(F)(F)F)c1	True
Oc1ccc2c(c1)OCC1c3cc4c(cc3OC21)OCO4 (configuration not stated)	True
C=C1C(C)C2C(Cc3ccccc3)NC(=O)C23OC(=O)/C=C/C(=O)CCCC(C)C/C=C/C3C1O (configuration not stated)	True
COc1cc([C@@H]2c3cc4c(c(O)c3C[C@H]3COC(=O)[C@@H]32)OCO4)cc(OC)c1OC	False
Nc1ccc(N=Nc2ccccc2)c(N)n1	True
COC(=O)[C@@H]1OC(=O)[C@H]2O[C@@]23[C@@]1(C)CCC1[C@@]2(C)CCC(=O)C(C)(C)C2C[C@@H](OC(C)=O)[C@]13C (some centres not stated)	False
NC(N)=NS(=O)(=O)c1ccc(N)cc1	True
C[N+]1(C)C2CC(OC(=O)[C@@H](CO)c3ccccc3)CC1C1OC12 (some centres not stated)	False
COc1cc2occ(-c3ccccc3)c(=O)c2c(OC)c1C	True
